- Tested on: UACC-257
- experiment: NCI tumour cell line growth inhibition, 48 h
Activity calls are given as the source filed them. Rule as the data show it: active = GI50 up to about 1.1 µM and inactive = higher.
// one of active, inactive, no free text

| compound | system_under_test | qualitative_label |
| --- | --- | --- |
| c1ccc2c(c1)c1c(n2CCOCCN2CCCCC2)CCCC1 | UACC-257 | inactive |

Input line: Record request — test call for CC(=O)OCC(OC(C)=O)C(OC(C)=O)C(OC(C)=O)C(C=NN(C(C)=O)S(=O)(=O)c1ccc(/C=C2\NC(=O)N(C)C2=O)cc1)OC(C)=O (configuration not stated)
Output line: inactive

Input line: Please share the test call associated with `CCOC(=O)Nc1ccc(S(=O)(=O)Nc2ccc(Br)cc2)cc1` .
Output line: inactive

Input line: Record lookup: outcome of this test for CCN(CC)C(=O)COc1cc2c(O)c3c(O)c(C)c4c(c13)C(=O)C(C)(OC=CC(OC)C(C)C(OC(C)=O)C(C)C(O)C(C)C(O)C(C)C=CC=C(C)C(=O)N2)O4 (configuration not stated) ?
Output line: inactive

Input line: I'd appreciate the recorded outcome for O=C1C(Cl)N(c2c(Cl)cccc2Cl)C1c1c[nH]c2ccccc12 (configuration not stated) from this test.
Output line: inactive
